Hello, the source for this data is patent US20140161804A1, in case you need it.

- STUDY_TARGET: T1, Human TNF (human, UniProt P01375 77-233)
- T1 construct: Biotinylated in the ELISA; purified recombinant protein in SPR; also called h TNF; huTNF
- T1 sequence (P01375 77-233 limits assumed): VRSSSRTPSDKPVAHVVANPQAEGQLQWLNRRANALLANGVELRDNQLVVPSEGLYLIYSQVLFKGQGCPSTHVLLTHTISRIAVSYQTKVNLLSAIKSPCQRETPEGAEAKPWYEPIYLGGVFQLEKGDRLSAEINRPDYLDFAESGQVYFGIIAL
- TEST_DESCRIPTION: in vitro display selection on recombinant human TNF
OUTCOME_MEASURE: binding result

BINDER	OUTCOME_MEASURE	RESULT
AE11-7 (antibody, V domains shown, Fully human anti-TNF antibody isolated by in vitro display; also called AE11-7 VH; AE11-7 VL) VH: EVQLVQSGAEVKKPGASVKVSCKTSGYSLTQYPIHWVRQAPGQRPEWMGWISPGNGNTKLSPKFQGRVTLSRDASAGTVFMDLSGLTSDDTAVYFCTSVDLGDHWGQGTLVTVSS VL: DIVMTQSPEFQSVTPKEKVTITCRASQSIGSSLHWYQQKPDQSPKLLINYASQSFSGVPSRFSGGGSGTDFTLTINSLEAEDAATYYCHQSSNLPITFGQGTRLEIK	binding result	binds
